Listed here are compounds together with their documented GI50.
system: panel of 55 breast cancer cell lines; assay: Cell growth inhibition assay (Cell Titer Glo, 72 h, 9 doses; GI50, TGI, LC50); assay type: cell-based, human; details: Homo sapiens, HCC1143, HCC1143 cell line; censored GI50 values; read-out: GI50 (converted)
Counter-ions that a name gives are not always drawn.
Please state the figure in nM; there is no need to write the unit.

For orientation, consider the following solved cases.
| Compound | GI50 / nM |
| --- | --- |
| CN(C)C/C=C/C(=O)Nc1cc2c(Nc3ccc(F)c(Cl)c3)ncnc2cc1O[C@H]1CCOC1 | 1380 |
| CN(Cc1cnc2nc(N)nc(N)c2n1)c1ccc(C(=O)N[C@@H](CCC(=O)O)C(=O)O)cc1 [Methotrexate] | 24 |

The value of GI50 measured for the compound CC(C)C[C@H](NC(=O)[C@H](Cc1ccccc1)NC(=O)c1cnccn1)B(O)O turned out to be 8.51

Summary for this compound, CCCCCN(C)CCC(O)(P(=O)(O)O)P(=O)(O)O [Ibandronate sodium salt] : GI50 is 43700
